# Tested on: MFM-223
# experiment description: drug sensitivity score (DSS), CellTiter-Blue viability (DSS (AUC-based score)); higher = stronger viability inhibition; extreme values may be limits of the assay
# test settings: incubation time: 72 h
Measured drug sensitivity score of individual entries

Below: 3 compounds and their reported drug sensitivity score.
compound	drug sensitivity score
O=C1NC(=O)[C@@H](c2cn3c4c(cccc24)CCC3)[C@@H]1c1c[nH]c2ccccc12 [Tivantinib]	0
CCCCCCCCc1ccc(CCC(N)(CO)CO)cc1	3.93
C[C@]12CC[C@H](O)CC1=CC[C@@H]1[C@@H]2CC[C@]2(C)C(c3cccnc3)=CC[C@@H]12	0

stdin: Record lookup: for MFM-223, what drug sensitivity score belongs to `CC(C)(C#N)c1cc(Cn2cncn2)cc(C(C)(C)C#N)c1` ?
stdout: 0
